# Method description: Serum steroid concentrations (DHEA, 5-DIOL, 4-dione, testosterone, DHT) in ovariectomized rats, percutaneous administration
# Assay setup: female, Sprague-Dawley, rat, in vivo, 30 mg
# Description: Intact animals are used as additional controls. The compounds were dissolved in 50% ethanol-50% propylene glycol and were administered in 0.1 ml on the dorsal skin area (2 cm×2 cm). Intact animals are used as additional controls. The compounds were dissolved in 50% ethanol-50% propylene glycol and were administered in 0.1 ml on the dorsal skin in area (2 cm×2 cm). […] Radioimmunoassay data were analyzed using a program based on model II of Rodbard and Lewald (Rodbard, 1974). […]

# Compound, concentration at 12 h (nM)
rows = [
    ("C[C@]12CC[C@H](O)CC1=CC[C@@H]1[C@@H]2CC[C@]2(C)C(=O)CC[C@@H]12 [DHEA, dehydroepiandrosterone]", 12.9),
]
